B1: library; numbered along this chain (parent)
chain: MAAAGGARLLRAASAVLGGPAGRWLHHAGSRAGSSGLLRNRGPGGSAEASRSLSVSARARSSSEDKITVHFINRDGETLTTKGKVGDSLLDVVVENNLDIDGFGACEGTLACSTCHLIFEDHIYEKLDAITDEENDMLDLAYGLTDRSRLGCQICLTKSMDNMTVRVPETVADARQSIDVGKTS

Variants of: B1
Assay: scaled log2 fold change in cell abundance, elesclomol vs control (0 = silent mean, 1 = nonsense mean) (scaled log2 ratio); higher = higher viability under elesclomol (loss of FDX1 cuproptosis function);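 also: variant abundance is its share of total variant reads in each endpoint sample, from next-generation sequencing of the integrated ORF PCR-amplified out of genomic DNA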
Details: with ABC1 FDX1 KO; elesclomol 5 nM; glucose 10 mM; 14 days
ENDPOINT LABEL: scaled log2 fold change
One number for each entry.

1. R58W
0.133
2. S177T
-0.0709
3. L138R
-0.0868
4. C112S
0.988

# return scaled log2 fold change for each item in the list
1. S184G
2. I154Q
3. D146G
4. S148Q

Response given:
1: 0.207; 2: 0.399; 3: -0.311; 4: 0.313

# return scaled log2 fold change for each item in the list
1. G108A
2. L150R
3. H122P

Response given:
0.21
1.05
-0.0781

# return scaled log2 fold change for each item in the list
1. I178G
2. M160N
3. I178S

Response given:
-0.381
0.245
0.197
